Measurement description: HPLC lipophilicity measurement (µHPLC logPOWpH 7.4, logD)
Format: physicochemical
Settings: HPLC on an apHera column (retention time method); pH 7.4, HPLC method, mean ± SD
Observable: chromatographic logD

INSERT INTO results (compound, quantitative_result) VALUES
  ('COc1nc(OCc2cccc(-c3ccccc3)c2C)ccc1CNCCN(C)C(C)=O [Substance 2b]', 3.97),
  ('COc1nc(OCc2cccc(-c3ccccc3)c2C)ccc1CN(CCNC(C)=O)C(=O)OCCF [Substance 2d]', 4.23),
  ('COc1nc(OCc2cccc(-c3ccccc3)c2C)ccc1CN(C)CCN(C)C(C)=O [Substance 2c]', 4.28),
  ('COC(=O)[C@@H]1CCCCN1Cc1c(OC)cc(OCc2cccc(-c3ccccc3)c2C)cc1OC [Substance 1a]', 4.9),
  ('COc1cc(OCc2cccc(-c3ccccc3)c2C)cc(OC)c1CN1CCCC[C@H]1C(=O)OCCF [Substance 1b]', 5.02),
  ('COc1nc(OCc2cccc(-c3ccccc3)c2C)ccc1CNCCNC(C)=O [Substance 2, reference compound]', 3.88),
  ('COc1cc(OCc2cccc(-c3ccccc3)c2C)cc(OC)c1CN1CCCC[C@H]1C(=O)O [Substance 1, reference compound]', 3.16),
  ('COc1nc(OCc2cccc(-c3ccccc3)c2C)ccc1CN(C)CCNC(C)=O [Substance 2a]', 4.13);

----------
Assay target: human PD-L1 (Homo sapiens)
Construct: purchased Cisbio Bioassays SAS 64PD1PEG
Sequence (Q9NZQ7 19-238 limits assumed): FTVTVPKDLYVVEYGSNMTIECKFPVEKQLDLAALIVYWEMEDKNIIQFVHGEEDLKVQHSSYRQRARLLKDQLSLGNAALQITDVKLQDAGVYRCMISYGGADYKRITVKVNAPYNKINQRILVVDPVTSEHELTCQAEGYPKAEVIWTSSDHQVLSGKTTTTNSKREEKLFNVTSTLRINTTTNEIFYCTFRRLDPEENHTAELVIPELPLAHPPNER
Measurement description: HTRF PD-1/PD-L1 Binding Assay Kit (Cisbio)
Settings: LELP = µHPLC logPOWpH 7.4/LE
Observable: LELP (ligand-efficiency-dependent lipophilicity efficiency)

Solved entries:
INSERT INTO results (molecule, quantitative_result) VALUES
  ('COc1cc(OCc2cccc(-c3ccccc3)c2C)cc(OC)c1CN1CCCC[C@H]1C(=O)OCCF [Substance 1b]', 22.9),
  ('COc1nc(OCc2cccc(-c3ccccc3)c2C)ccc1CN(CCNC(C)=O)C(=O)OCCF [Substance 2d]', 22.2),
  ('COc1nc(OCc2cccc(-c3ccccc3)c2C)ccc1CN(C)CCNC(C)=O [Substance 2a]', 14.8);

A = COc1nc(OCc2cccc(-c3ccccc3)c2C)ccc1CNCCN(C)C(C)=O [Substance 2b]
B = COC(=O)[C@@H]1CCCCN1Cc1c(OC)cc(OCc2cccc(-c3ccccc3)c2C)cc1OC [Substance 1a]
Parameter metric = LELP (ligand-efficiency-dependent lipophilicity efficiency). Return the lower-valued option from A and B . // output: label of the selected item
A
